tested on: NCI-H1048 cells; test: MTT proliferation assay, NCI-H1048; format: cell-based; details: 5 days compound exposure, 1:3 serial dilution starting at 10 μM;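 also: Dose-response in 96-well plates over 8 or 10 concentration points, with exposure spanning 3-4 cell doublings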
*1 amine or outer side, *2 acyl side, *3 side chain or, on linkers, in order; H or OH if unused. Where a SMILES comes first, the peptide text is derived from it. Bridges are numbered along the chain shown (N, C = ends). [ ]: non-standard residue; d: D form. The star is where a group is joined. NMePhe(5-Cl,2-O(2-Pym)) = CN[C@@H](Cc1cc(Cl)ccc1Oc1ncccn1)C(=O)O; X83 = CN([C@@H](Cc1cc(Cl)ccc1-c1cnn2c1COCC2)C(=O)[*:2])[*:1]; NMehhhLys(Me) = CN([C@@H](CCCCCCCN(C)[*:3])C(=O)[*:2])[*:1]; X64 = CN([C@@H](Cc1cc(Cl)ccc1OC1(C)CC1)C(=O)[*:2])[*:1]; Oxane2carbonyl(2R-CF3) = O=C([C@@]1(C(F)(F)F)CCCCO1)*; cBuCO(3,3-F2-1-CF3) = O=C(C1(C(F)(F)F)CC(F)(F)C1)*; Pro(trans-4-F) = O=C(O)[C@@H]1C[C@@H](F)CN1; Gly(cPr) = N[C@H](C(=O)O)C1CC1
GI50 values by entry
property measured: GI50 (nM)

[[record]]
compound = "CC(C)C[C@@H]1NC(=O)[C@@H](N(C)C(=O)[C@@H](NC(=O)[C@@H]2C[C@@H](F)CN2C(=O)C2(C(F)(F)F)CC(F)(F)C2)C2CC2)CCCCCCCN(C)C(=O)[C@H](Cc2cc(Cl)ccc2Oc2ncccn2)N(C)C1=O [Example 155] ({cBuCO(3,3-F2-1-CF3)}-[Pro(trans-4-F)][Gly(cPr)][NMehhhLys(Me)]L[NMePhe(5-Cl,2-O(2-Pym))]; lactam 3-C)"
assay_target = "NCI-H1048 cells"
measure_unit = "nM"
measurement = 10

[[record]]
compound = "CC(C)C[C@@H]1NC(=O)[C@@H](N(C)C(=O)[C@@H](NC(=O)[C@@H]2C[C@@H](F)CN2C(=O)[C@@]2(C(F)(F)F)CCCCO2)C2CC2)CCCCCCCN(C)C(=O)[C@H](Cc2cc(Cl)ccc2OC2(C)CC2)N(C)C1=O [Example 260] ({Oxane2carbonyl(2R-CF3)}-[Pro(trans-4-F)][Gly(cPr)][NMehhhLys(Me)]L[X64]; lactam 3-C)"
assay_target = "NCI-H1048 cells"
measure_unit = "nM"
measurement = 40

[[record]]
compound = "CC(C)C[C@@H]1NC(=O)[C@@H](N(C)C(=O)[C@@H](NC(=O)[C@@H]2C[C@@H](F)CN2C(=O)C2(C(F)(F)F)CC(F)(F)C2)C2CC2)CCCCCCCN(C)C(=O)[C@H](Cc2cc(Cl)ccc2-c2cnn3c2COCC3)N(C)C1=O [Example 233] ({cBuCO(3,3-F2-1-CF3)}-[Pro(trans-4-F)][Gly(cPr)][NMehhhLys(Me)]L[X83]; lactam 3-C)"
assay_target = "NCI-H1048 cells"
measure_unit = "nM"
measurement = 30


From: patent US20240408169A1
